# assayedSystem: BRD4(1) (Homo sapiens, UniProt O60885)
# Construct: made in house
# methodSummary: Isothermal titration calorimetry, BRD4(1)
# Type: binding
# condition: LE = ΔG/N, N number of non-hydrogen atoms
recordedEndpoint: LE (ligand efficiency)

>>> measurednumber("COc1ccc(Cl)cc1-c1nc(N)nc2[nH]cnc12")
0.39
>>> measurednumber("COc1ccc(Br)cc1-c1nc(N)nc2[nH]cnc12")
0.37
>>> measurednumber("Nc1nc(-c2cc(Br)cc3c2OCC3)c2nc[nH]c2n1")
0.39
>>> measurednumber("Nc1nc(-c2ccccc2)c2nc[nH]c2n1")
0.41

---

# assayedSystem: PB1(5) (Homo sapiens)
# Construct: made in house
# Sequence (Q86U86 653-763 limits assumed): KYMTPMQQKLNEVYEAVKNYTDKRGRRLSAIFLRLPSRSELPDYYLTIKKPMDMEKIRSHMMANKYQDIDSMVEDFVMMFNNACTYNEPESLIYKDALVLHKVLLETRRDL
# methodSummary: Protein stability (thermal) shift assay, PB1(5)
# Assay type: binding
# condition: compound 10 μM, protein 2 μM; average of triplicate
recordedEndpoint: ΔTm at 10 µM (°C)

Completed entries (count: 7):
>>> measurednumber("Cn1cnc2c(Br)nc(N)nc21")
1.9
>>> measurednumber("Nc1nc(-c2ccc(Oc3ccccc3)cc2)c2nc[nH]c2n1")
0.0567
>>> measurednumber("COc1cccc(OCC(C)C)c1-c1nc(N)nc2[nH]cnc12")
-0.324
>>> measurednumber("COc1ccc(-c2nc(N)nc3[nH]cnc23)cc1")
-0.08
>>> measurednumber("COc1ccc(-c2nc(N)nc3c2ncn3C)cc1")
-0.0233
>>> measurednumber("COc1cccc(OC(C)C)c1-c1nc(N)nc2[nH]cnc12")
0.216
>>> measurednumber("COc1ccc(Br)cc1-c1nc(Cl)nc2[nH]cnc12")
1.3

(A) COc1cccc(OC)c1-c1nc(N)nc2[nH]cnc12
(B) Clc1nc(Cl)c2nc[nH]c2n1
q: Given the two records A and B , choose the one whose ΔTm at 10 µM value is lower. Label of pick, please.
a: A
(A: 0.4 °C, B: 1.4 °C)

---

# assayedSystem: BRD9 bromodomain (Homo sapiens)
# Construct: Q9H8M2-BRD amino acids 120–240
# Sequence (Q9H8M2 120-240): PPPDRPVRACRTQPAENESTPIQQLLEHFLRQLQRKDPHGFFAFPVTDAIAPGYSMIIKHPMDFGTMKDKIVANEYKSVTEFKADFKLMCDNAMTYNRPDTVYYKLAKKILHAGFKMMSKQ
# methodSummary: NanoBRET assay, NanoLuc-BRD9 bromodomain / histone H3.3-HaloTag in HEK293 cells
# condition: 0.005-33 μM, 18 h, read-out: cellular (apparent) IC50, displacement of NanoLuc-BRD9 bromodomain from histone H3.3
recordedEndpoint: IC50 (µM)
Value expressed in µM; do not type the unit.

q: Give the measured IC50 of COc1ccc(Br)cc1-c1nc(N)nc2[nH]cnc12 .
a: 3.5

---

# assayedSystem: BRD4(2) (Homo sapiens, UniProt O60885)
# Construct: made in house
# methodSummary: Protein stability (thermal) shift assay, BRD4(2)
# Type: binding
# condition: compound 10 μM, protein 2 μM; average of triplicate
recordedEndpoint: ΔTm at 10 µM (°C)

Consider the following illustrative entries.
>>> measurednumber("Cn1cnc2c(Br)nc(N)nc21")
-2.4
>>> measurednumber("COc1cccc(OC(C)C)c1-c1nc(N)nc2[nH]cnc12")
-0.845
>>> measurednumber("CCOc1ccc(Br)cc1-c1nc(N)nc2[nH]cnc12")
-1.5
>>> measurednumber("Nc1nc(-c2cc(Br)cc3c2OCC3)c2nc[nH]c2n1")
2.8
>>> measurednumber("COc1ccc(Br)cc1-c1nc(Cl)nc2[nH]cnc12")
0.3

(A) COc1ccc(Cl)cc1-c1nc(N)nc2[nH]cnc12
(B) COc1ccc(-c2nc(N)nc3[nH]cnc23)cc1
q: // select label with min value of measured ΔTm at 10 µM from [ A , B ] To answer, give the label that identifies your chosen option.
a: B
(B: 0.0133 °C, A: 0.7 °C)

Reference for the values: paper PMC4403932
